B1: H116S, A5H7H0 (parent)
chain: MQLQNFLSIVLLVVSGAIAGTVMDHDKIAKLPASGSPLETKFQPQLHIGNGCHSYPAVDAQGNWSGGLKPTGAPSAACKDTSKAQTYVRSATFQGKTALVYAWYMPKDEISTGIGHRHDWEGAVVFLNSDTQQIDGVAASAHGKWRKYPNPGGANIDDTHVKLQYSAEPVINSHALDLTDKGGDLPTLASWEGMGADARAAINERSHWGDANPPIADSLIGSSLSGAWMW

Variants of: B1
Conditions: Moniliophthora perniciosa; pH 7.2; Thermal; CD; sodium phosphate buffer 4mM; EDTA CaCl2 with ZnCl2 62.5 micro M 120 micro M 120 micro M; structure 3ST1; whole UniProt chain shown
Catalogue of variants with associated Tm
Write down the numeric answer in °C and omit the unit.

Guide cases for Tm, answers given:
1. H116S; 39.9
2. H116A; 40.4
3. V170R; 37.7
4. D119K; 40.2

Continue with the variant presented below.
Sure, the documented Tm for `D210S` is 38.7
